# condition: 361.15 K; 101.33 kPa; Liquid; Vibrating tube method
± gives the expanded uncertainty stated by the source.
assayMetric: mass density
Please append the unit to your numeric answer.

Solved cases (2 shown):
{"compound": "CCn1cc[n+](C)c1.COS(=O)(=O)[O-] [1-ethyl-3-methylimidazolium methylsulfate]", "mass density": "1244.09 ± 0.5 kg/m3"}
{"compound": "CCn1cc[n+](C)c1.O=S(=O)([O-])O [1-ethyl-3-methylimidazolium hydrogen sulfate]", "mass density": "1327.85 ± 0.56 kg/m3"}

Asked: Fill blank: measured mass density of the compound CCCCCCCCOS(=O)(=O)[O-].CCn1cc[n+](C)c1 [1-ethyl-3-methylimidazolium octyl sulfate] is ____.
Given back: 1054.75 ± 0.95 kg/m3

Asked: Requested field: mass density. Item: CCCCCCOS(=O)(=O)[O-].CC[n+]1ccn(C)c1 [3-ethyl-1-methyl-1H-imidazolium hexyl sulfate]
Given back: 1089.43 ± 1 kg/m3

Asked: Report mass density for CCCCOS(=O)(=O)[O-].CC[n+]1ccn(C)c1 [3-ethyl-1-methylimidazolium butyl sulfate] please.
Given back: 1134.82 ± 1.1 kg/m3

* * *

# condition: 304.15 K; 101.33 kPa; Liquid; Vibrating tube method
assayMetric: mass density (kg/m3)
Your answer should be a plain number; it is taken to be in kg/m3.

Reference set (3 entries):
{"molecule": "CCCCCCOS(=O)(=O)[O-].CC[n+]1ccn(C)c1 [3-ethyl-1-methyl-1H-imidazolium hexyl sulfate]", "measurementUnits": "kg/m3", "resultValue": 1126.38}
{"molecule": "CCn1cc[n+](C)c1.COS(=O)(=O)[O-] [1-ethyl-3-methylimidazolium methylsulfate]", "measurementUnits": "kg/m3", "resultValue": 1281.89}
{"molecule": "CCn1cc[n+](C)c1.O=S(=O)([O-])O [1-ethyl-3-methylimidazolium hydrogen sulfate]", "measurementUnits": "kg/m3", "resultValue": 1362.05}

Asked: Quick one: mass density for CCCCCCCCOS(=O)(=O)[O-].CCn1cc[n+](C)c1 [1-ethyl-3-methylimidazolium octyl sulfate] ?
Given back: 1091.66

Asked: Can you look up the measured mass density of CCCCOS(=O)(=O)[O-].CC[n+]1ccn(C)c1 [3-ethyl-1-methylimidazolium butyl sulfate] for me?
Given back: 1172.14

* * *

# condition: 332.15 K; 101.33 kPa; Liquid; Vibrating tube method
± gives the expanded uncertainty stated by the source.
assayMetric: mass density

{"compound": "CCCCOS(=O)(=O)[O-].CC[n+]1ccn(C)c1 [3-ethyl-1-methylimidazolium butyl sulfate]", "resultValue": "1153.51 ± 1.2 kg/m3"}

Asked: GET /values?readout=mass density&item= CCCCCCOS(=O)(=O)[O-].CC[n+]1ccn(C)c1 [3-ethyl-1-methyl-1H-imidazolium hexyl sulfate]
Given back: 1107.92 ± 1.1 kg/m3

* * *

# condition: 358.15 K; 101.33 kPa; Liquid; Vibrating tube method
assayMetric: mass density (kg/m3)
Give your result in kg/m3 as a bare value.

Some compounds with known mass density results, for comparison:
{"compound": "CCn1cc[n+](C)c1.O=S(=O)([O-])O [1-ethyl-3-methylimidazolium hydrogen sulfate]", "assayMetric": "mass density", "resultValue": 1329.61}
{"compound": "CCn1cc[n+](C)c1.COS(=O)(=O)[O-] [1-ethyl-3-methylimidazolium methylsulfate]", "assayMetric": "mass density", "resultValue": 1246.03}
{"compound": "CCCCCCCCOS(=O)(=O)[O-].CCn1cc[n+](C)c1 [1-ethyl-3-methylimidazolium octyl sulfate]", "assayMetric": "mass density", "resultValue": 1056.63}
{"compound": "CCCCCCOS(=O)(=O)[O-].CC[n+]1ccn(C)c1 [3-ethyl-1-methyl-1H-imidazolium hexyl sulfate]", "assayMetric": "mass density", "resultValue": 1091.32}

Asked: Consider the compound shown here: CCCCOS(=O)(=O)[O-].CC[n+]1ccn(C)c1 [3-ethyl-1-methylimidazolium butyl sulfate] What is its recorded mass density?
Given back: 1136.73

* * *

Attribute: mass density
# condition: 353.15 K; 101.33 kPa; Liquid; Vibrating tube method
Only the number, expressed in kg/m3, is required.

Below, 3 compounds whose answers are already recorded.
{"compound": "CCn1cc[n+](C)c1.O=S(=O)([O-])O [1-ethyl-3-methylimidazolium hydrogen sulfate]", "assayMetric": "mass density", "resultValue": 1332.57}
{"compound": "CCCCCCCCOS(=O)(=O)[O-].CCn1cc[n+](C)c1 [1-ethyl-3-methylimidazolium octyl sulfate]", "assayMetric": "mass density", "resultValue": 1059.79}
{"compound": "CCCCCCOS(=O)(=O)[O-].CC[n+]1ccn(C)c1 [3-ethyl-1-methyl-1H-imidazolium hexyl sulfate]", "assayMetric": "mass density", "resultValue": 1094.49}

Asked: Fill in the blank: the reported mass density of CCn1cc[n+](C)c1.COS(=O)(=O)[O-] [1-ethyl-3-methylimidazolium methylsulfate] is ____.
Given back: 1249.28

Asked: Look up mass density for this compound: CCCCOS(=O)(=O)[O-].CC[n+]1ccn(C)c1 [3-ethyl-1-methylimidazolium butyl sulfate]
Given back: 1139.93

* * *

# viscosity per record follows
# condition: 313.15 K; 101.33 kPa; Liquid; Concentric cylinders viscometry
Numbers after ± are expanded uncertainties.
Answer with the number, then the unit.

The following molecules have reported results that may help.
{"molecule": "CCCCCCCCOS(=O)(=O)[O-].CCn1cc[n+](C)c1 [1-ethyl-3-methylimidazolium octyl sulfate]", "viscosity": "240.5 ± 11 mPa·s"}
{"molecule": "CCCCCCOS(=O)(=O)[O-].CC[n+]1ccn(C)c1 [3-ethyl-1-methyl-1H-imidazolium hexyl sulfate]", "viscosity": "135.9 ± 5.9 mPa·s"}
{"molecule": "CCn1cc[n+](C)c1.COS(=O)(=O)[O-] [1-ethyl-3-methylimidazolium methylsulfate]", "viscosity": "42.9 ± 1.7 mPa·s"}
{"molecule": "CCn1cc[n+](C)c1.O=S(=O)([O-])O [1-ethyl-3-methylimidazolium hydrogen sulfate]", "viscosity": "612.2 ± 31 mPa·s"}

Attention now shifts to the item below.
Asked: What value of viscosity has been reported for the following molecule? CCCCOS(=O)(=O)[O-].CC[n+]1ccn(C)c1 [3-ethyl-1-methylimidazolium butyl sulfate]
Given back: 84.8 ± 3.5 mPa·s

* * *

# condition: 348.15 K; 101.33 kPa; Liquid; Vibrating tube method
Numbers after ± are expanded uncertainties.
Item-by-item account of mass density
Answer with the number, then the unit.

Completed entries (count: 3):
{"compound": "CCn1cc[n+](C)c1.COS(=O)(=O)[O-] [1-ethyl-3-methylimidazolium methylsulfate]", "mass density": "1252.54 ± 0.5 kg/m3"}
{"compound": "CCn1cc[n+](C)c1.O=S(=O)([O-])O [1-ethyl-3-methylimidazolium hydrogen sulfate]", "mass density": "1335.54 ± 0.56 kg/m3"}
{"compound": "CCCCCCOS(=O)(=O)[O-].CC[n+]1ccn(C)c1 [3-ethyl-1-methyl-1H-imidazolium hexyl sulfate]", "mass density": "1097.66 ± 1 kg/m3"}

Asked: Look up mass density for this compound: CCCCCCCCOS(=O)(=O)[O-].CCn1cc[n+](C)c1 [1-ethyl-3-methylimidazolium octyl sulfate]
Given back: 1062.96 ± 0.97 kg/m3

Asked: Return reported mass density; argument: CCCCOS(=O)(=O)[O-].CC[n+]1ccn(C)c1 [3-ethyl-1-methylimidazolium butyl sulfate]
Given back: 1143.14 ± 1.1 kg/m3

* * *

# condition: 343.15 K; 101.33 kPa; Liquid; Vibrating tube method
Each entry below carries its recorded mass density.
Respond with the bare value in kg/m3.

Worked examples, 4 molecules total:
{"molecule": "CCCCOS(=O)(=O)[O-].CC[n+]1ccn(C)c1 [3-ethyl-1-methylimidazolium butyl sulfate]", "assayMetric": "mass density", "resultValue": 1146.37}
{"molecule": "CCn1cc[n+](C)c1.COS(=O)(=O)[O-] [1-ethyl-3-methylimidazolium methylsulfate]", "assayMetric": "mass density", "resultValue": 1255.81}
{"molecule": "CCn1cc[n+](C)c1.O=S(=O)([O-])O [1-ethyl-3-methylimidazolium hydrogen sulfate]", "assayMetric": "mass density", "resultValue": 1338.54}
{"molecule": "CCCCCCCCOS(=O)(=O)[O-].CCn1cc[n+](C)c1 [1-ethyl-3-methylimidazolium octyl sulfate]", "assayMetric": "mass density", "resultValue": 1066.15}

Please find the next molecule below.
Asked: Which mass density is listed for CCCCCCOS(=O)(=O)[O-].CC[n+]1ccn(C)c1 [3-ethyl-1-methyl-1H-imidazolium hexyl sulfate] ?
Given back: 1100.85

* * *

# condition: 293.15 K; 101.33 kPa; Liquid; Vibrating tube method
Numbers after ± are expanded uncertainties.
Measured mass density, listed per entry.
Please provide the amount together with its unit, number first.

Past entries and their recorded results:
{"molecule": "CCCCCCCCOS(=O)(=O)[O-].CCn1cc[n+](C)c1 [1-ethyl-3-methylimidazolium octyl sulfate]", "mass density": "1098.76 ± 1 kg/m3"}
{"molecule": "CCCCOS(=O)(=O)[O-].CC[n+]1ccn(C)c1 [3-ethyl-1-methylimidazolium butyl sulfate]", "mass density": "1179.68 ± 1.2 kg/m3"}
{"molecule": "CCCCCCOS(=O)(=O)[O-].CC[n+]1ccn(C)c1 [3-ethyl-1-methyl-1H-imidazolium hexyl sulfate]", "mass density": "1133.8 ± 1.1 kg/m3"}
{"molecule": "CCn1cc[n+](C)c1.O=S(=O)([O-])O [1-ethyl-3-methylimidazolium hydrogen sulfate]", "mass density": "1368.86 ± 0.58 kg/m3"}

Asked: Quick one: mass density for CCn1cc[n+](C)c1.COS(=O)(=O)[O-] [1-ethyl-3-methylimidazolium methylsulfate] ?
Given back: 1289.48 ± 0.53 kg/m3
